ED50 values, listed per item
System: phenylquinone-induced writhing in mice
test: Phenylquinone Writhing Test
Format: in vivo, female white mice
measurementContext: Mus musculus; effective analgesic dose for 50% of the mice; oral; 0.01% phenylquinone 0.20 ml i.p.; read-out: Phenylquinone Writhing (PQW) ED50
Method: Phenylquinone Writhing Test A test compound suspended in 1% methylcellulose was given orally to fasted (17-21 hours) female white mice, 5-20 animals per double blind test. Aqueous (0.01% phenyl-p-benzoquinone) phenylquinone, 0.20 ml per mouse, was injected intraperitoneally 6 minutes before observations were begun.

[[record]]
compound = "CSc1ccc(-c2c(-c3ccc(F)cc3)cc(C(F)(F)F)n2C)cc1"
parametermeasured = "ED50"
result = "16 mg/kg"

[[record]]
compound = "CC(C)Cc1ccc(C(C)C(=O)O)cc1 (centres unmarked) [Ibuprofen, reference compound]"
parametermeasured = "ED50"
result = "10 mg/kg"

[[record]]
compound = "CCn1c(C(F)(F)F)cc(-c2ccc(OC)cc2)c1-c1ccc(OC)cc1"
parametermeasured = "ED50"
result = "47 mg/kg"

[[record]]
compound = "COc1ccc(-c2cc(C(F)(F)F)n(C)c2-c2ccc(OC)cc2)cc1"
parametermeasured = "ED50"
result = "16 mg/kg"

[[record]]
compound = "CCCCC1C(=O)N(c2ccccc2)N(c2ccccc2)C1=O [Phenylbutazone, reference compound]"
parametermeasured = "ED50"
result = "80 mg/kg"


Q: Report ED50 for Cc1ccc(-c2cc(C(F)(F)F)n(C)c2-c2ccc(C)cc2)cc1 please.
Result: 18 mg/kg

Q: Report ED50 for CSc1ccc(-c2cc(C(F)(F)F)n(C)c2-c2ccc(SC)cc2)cc1 please.
Result: > 108 mg/kg

Q: Report ED50 for COc1ccc(-c2cc(C(F)(F)C(F)(F)F)n(C)c2-c2ccc(OC)cc2)cc1 please.
Result: 1.8 mg/kg

Data credit: patent US4477463A
